Values compiled from ChEMBL document CHEMBL3882724.

- Experimental Target: CYP21 (steroid 21-hydroxylase) (Homo sapiens)
- Sequence (P08686 whole entry): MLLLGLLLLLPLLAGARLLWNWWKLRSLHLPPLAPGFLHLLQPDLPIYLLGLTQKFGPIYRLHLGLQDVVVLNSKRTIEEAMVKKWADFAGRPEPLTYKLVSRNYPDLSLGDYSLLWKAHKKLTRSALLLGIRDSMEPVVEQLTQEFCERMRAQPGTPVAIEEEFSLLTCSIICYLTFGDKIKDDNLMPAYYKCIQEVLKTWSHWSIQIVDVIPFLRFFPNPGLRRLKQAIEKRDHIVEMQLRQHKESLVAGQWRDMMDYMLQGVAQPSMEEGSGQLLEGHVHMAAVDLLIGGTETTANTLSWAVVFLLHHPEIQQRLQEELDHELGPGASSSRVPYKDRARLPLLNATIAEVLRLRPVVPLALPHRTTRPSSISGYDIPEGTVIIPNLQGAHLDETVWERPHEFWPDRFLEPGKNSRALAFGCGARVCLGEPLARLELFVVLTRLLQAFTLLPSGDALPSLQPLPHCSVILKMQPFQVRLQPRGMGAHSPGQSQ
- Assay Notes: Inhibition of human CYP21 transfected in HEK293 cells assessed as decrease in conversion of progesterone to 11-deoxycorticosterone preincubated for 5 hrs followed by progesterone addition measured after 20 hrs by ELISA
- Format: cell-based
- Design: concentration or dose not given beside the values
- Test Context: HEK293 cells transfected with human CYP21, probe progesterone
Readout Type: inhibition at 20 h

// below: answered compounds
C[C@]12CC(O)CC1CC[C@@H]1[C@@H]2CC[C@]2(C)C(c3cccnc3)=CC[C@@H]12 (some centres not stated)
≥ 50%
C[C@]12CC[C@H]3[C@@H](CCC4=CC(=O)NCC[C@@]43C)C1=CC=C2c1cncc(F)c1
10 to 50%
CCCC(=O)N[C@@H]1CC[C@@]2(C)C(=CC[C@@H]3[C@@H]2CC[C@]2(C)C(c4cccnc4)=CC[C@@H]32)C1
≥ 50%

Asked: Value lookup for inhibition at 20 h; key = CC[C@]1(O)CC[C@@]2(C)C(CC[C@@H]3[C@@H]2CC[C@]2(C)C(c4cccnc4)=CC[C@@H]32)C1 (some centres not stated)
Given back: 10 to 50%

Asked: Requested read-out: inhibition at 20 h. Entry: CC1C[C@@H]2[C@H](CC[C@]3(C)C(c4cccnc4)=CC[C@@H]23)[C@@]2(C)CCC(=O)C=C12 (some centres not stated)
Given back: ≥ 50%

Asked: Name the recorded inhibition at 20 h for CC(CO)(CO)C(=O)O[C@H]1CC[C@@]2(C)C(=CC[C@H]3C4=CC=C(c5cccnc5)[C@@]4(C)CC[C@@H]32)C1 .
Given back: < 10%

Asked: Endpoint output: inhibition at 20 h of CC1C[C@@H]2[C@H](CC[C@]3(C)C(c4cccnc4)=CC[C@@H]23)[C@@]2(C)CC/C(=N\O)C=C12 (some centres not stated) . Value?
Given back: 10 to 50%
